Test system: YES;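 also: KINOMEscan kinase panel screen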
Construct: gene YES1
measurement.conditions: concentration: 1 μM, replicates: in singlicate; n = 1

# compound, study.target, %Inh (%)
records = [
    ("Nc1cccc(-c2ccc3c(N)n[nH]c3c2)c1", "YES", 0),
    ("COc1cc(Nc2nccc(N3CCC(NC(=O)Nc4ccc5c(c4)OCO5)C3)n2)cc(OC)c1OC (centres unmarked)", "YES", 7),
    ("Cc1ccccc1CC(=O)N1CCc2cc(-c3cn(C)c4ncnc(N)c34)ccc21", "YES", 18),
    ("CN(c1ccc(NC(=O)Nc2cccc(Cl)c2)cc1)c1ccnc(N)n1.Cl", "YES", 0),
    ("CCOc1nccc(-c2c(-c3ccc(F)cc3)ncn2C2CCNCC2)n1", "YES", 0),
    ("Cc1ccc(O)cc1Nc1ccnc2cc(-c3ccc(CN4CCCCC4)o3)ccc12", "YES", 99.8),
    ("COc1ccc(C2=C(Nc3cccc(O)c3)C(=O)NC2=O)cc1", "YES", 0),
    ("CNc1nccc(-c2ccc3c(N)n[nH]c3c2)n1", "YES", 24),
    ("COc1cc(Nc2ccnc3cc(-c4ccncc4)ccc23)cc(OC)c1OC.Cl", "YES", 76),
    ("Nc1ncc(-c2ccc3nccc(-c4ccncc4)c3c2)cc1S(=O)(=O)N1CCCCC1", "YES", 10),
    ("CC(C)c1nc(-c2ccc(F)c(NS(=O)(=O)c3c(F)cccc3F)c2)c(-c2ccnc(Nc3ccc(N4CCOCC4)nc3)n2)s1", "YES", 99.2),
    ("COc1ccc(C)c(Nc2ccnc(Nc3ccc(-c4cnc[nH]4)cc3)n2)c1.Cl", "YES", 29),
    ("CC(=O)Nc1cn2nc(Oc3cccc(NC(=O)c4cccc(C(F)(F)F)c4)c3)ccc2n1", "YES", 96.2),
    ("CN(c1ccc2c(c1)nc(NCc1ccccc1)n2C)c1ccnc(Nc2ccc(CS(C)(=O)=O)cc2)n1.Cl", "YES", 0),
    ("COc1ccc(NC(=O)c2ccoc2)cc1-c1ccc(C(=O)NCC2CC2)cc1", "YES", 0),
    ("CN1CCN(Cc2ccc(NC(=O)Nc3ccc(N(C)c4ccnc(Nc5ccc(CS(C)(=O)=O)cc5)n4)cc3)cc2)CC1.Cl", "YES", 0),
    ("Cn1cc(-c2cnc(N)c3c(-c4ccc5c(c4)CCN5C(=O)Cc4ccccc4)csc23)cn1", "YES", 55),
]
